The origin of these recorded values is ChEMBL document CHEMBL1799921.

Test system: Salmonella typhimurium
Test: Antibacterial activity against Salmonella Typhimurium after 18 hrs by macro-dilution test
Format: functional, Salmonella enterica subsp. enterica serovar Typhimurium
Settings: Salmonella enterica
outcome_measure: MIC (mg/L)
Use mg/L as the unit, but write only the number.

Worked cases, MIC given:
| molecule | outcome_measure | unit_text | numeric_value |
| --- | --- | --- | --- |
| S=C(N/N=C/c1cc2ccccc2nc1Cl)NC1CCCCCCC1 | MIC | mg/L | 128 |
| Cc1cccc2cc(/C=N/NC(=S)Nc3ccc([N+](=O)[O-])cc3)c(Cl)nc12 | MIC | mg/L | 64 |
| Cc1ccccc1NC(=S)N/N=C/c1cc2cccc(Cl)c2nc1Cl | MIC | mg/L | 32 |
| CC(=O)N(C1=NN(C(C)=O)C(c2cc3cccc(C)c3nc2Cl)S1)c1ccc(C)cc1 (stereo not given) | MIC | mg/L | 64 |

Kindly consider the entry below.
Q: Requested read-out: MIC. Entry: Cc1ccccc1NC(=S)N/N=C/c1cc2cccc(C)c2nc1Cl
Ans: 32
